- targetOrSystem: Sigma-1 sites, T47D breast ductal carcinoma
- reportedConditions: read-out: Kd4 Sigma-1
valueKind: Kd (nM)
Give bare numbers, in nM.

CC(C)=CCN1CC[C@]2(C)c3cc(O)ccc3C[C@H]1[C@H]2C [[^3H] (+)-pentazocine] on Sigma-1 sites, T47D breast ductal carcinoma gives Kd = 261

* * *

- targetOrSystem: Sigma-1 sites, T47D breast ductal carcinoma
- reportedConditions: read-out: Kd1 Sigma-1
valueKind: pKd
Answers are plain numbers, as −log10 of the molar value.

Note to self: pKd recorded for CC(C)=CCN1CC[C@]2(C)c3cc(O)ccc3C[C@H]1[C@H]2C [[^3H] (+)-pentazocine] was 8.18
